system: UACC-257 melanoma; assay: NCI tumour cell line growth inhibition, 48 h
Consider the following molecules and their measured TGI readings.

Compound Smiles | Assay Target | TGI
O=C(O)c1cccc(/C=C/c2ccccc2)c1 | UACC-257 melanoma | > 100 µM

Challenge: Could you tell me which TGI is on file for `N#C/C(=C1/c2cc([N+](=O)[O-])ccc2-c2c1cc([N+](=O)[O-])cc2[N+](=O)[O-])N1CCCCC1` ?
Response given: > 100 µM

Challenge: Could you tell me which TGI is on file for `Clc1ccc2c(c1)[nH]c1c2nc2sccn21` ?
Response given: > 100 µM

Challenge: Could you tell me which TGI is on file for `COc1cc2oc(-c3ccc4c(c3)OCO4)c(OC)c(=O)c2c(O)c1OC` ?
Response given: > 50 µM

Challenge: Could you tell me which TGI is on file for `CCOC(=O)C1=C(Nc2ccc(Cl)c(Cl)c2)OC/C1=N\NC(=O)Cc1ccccc1` ?
Response given: > 100 µM

Challenge: Could you tell me which TGI is on file for `CCOC(=O)Cc1csc(N=Nc2c(O)[nH]c3ccccc23)n1` ?
Response given: > 100 µM

Challenge: Could you tell me which TGI is on file for `CC(C)(C)n1cc(-c2ccnc(NCCCNS(=O)(=O)c3ccc(Br)cc3)c2)c(-c2cccc(O)c2)n1` ?
Response given: 4.33 µM

---

system: SN12C renal; assay: NCI tumour cell line growth inhibition, 48 h
Result Type: TGI

Challenge: Item: C=C(CCOC)CCC1CCCCC(=C)[C@H]1O (stereo partly specified) Test system: SN12C renal Read-out: TGI Value: ?
Response given: > 100 µM

Challenge: Item: `COC(=O)c1cc(-c2ccc(OC)cc2)[nH]c1N/N=C/c1c(Cl)cccc1Cl` Test system: SN12C renal Read-out: TGI Value: ?
Response given: 18.7 µM

Challenge: Item: `O=[N+]([O-])c1ccc2nc(/C=C(\O)c3ccc(Cl)cc3)c(/C=C(\O)c3ccc(Cl)cc3)nc2c1` Test system: SN12C renal Read-out: TGI Value: ?
Response given: > 100 µM

Challenge: Item: `O=C(Nc1ccc(Br)cc1)Nc1nn(C(=O)Nc2ccc(Br)cc2)c2ccccc12` Test system: SN12C renal Read-out: TGI Value: ?
Response given: > 100 µM

Challenge: Item: `Cn1c2ccc(C3=NCCN3)cc2c2cc(C3=NCCN3)ccc21` Test system: SN12C renal Read-out: TGI Value: ?
Response given: > 100 µM

Challenge: Item: `Cc1ccc(/C=C2/NC(=S)SC2=O)cc1` Test system: SN12C renal Read-out: TGI Value: ?
Response given: > 100 µM

Challenge: Item: COc1cccc(NC(=O)CC(=O)N2N=C(C)C(N=Nc3ccc(C(=O)O)cc3)C2=O)c1 (stereo unspecified) Test system: SN12C renal Read-out: TGI Value: ?
Response given: > 100 µM

Challenge: Item: `CCN(CC)CCOc1c(OC)c(Br)cc2c(C)c(C(=O)OC)oc12` Test system: SN12C renal Read-out: TGI Value: ?
Response given: 2.36 µM

Challenge: Item: `COC(=O)c1ccc(C(=O)OC)c2nc3cc(C)ccc3nc12` Test system: SN12C renal Read-out: TGI Value: ?
Response given: > 100 µM

Challenge: Item: `Nc1cc2[nH]cnc2c(=O)[nH]1` Test system: SN12C renal Read-out: TGI Value: ?
Response given: > 300 µM

Challenge: Item: `CCOC(=O)Nc1nc2cc(OCC)ccc2s1` Test system: SN12C renal Read-out: TGI Value: ?
Response given: > 100 µM

---

tested on: UACC-257 melanoma; experiment: NCI tumour cell line growth inhibition, 48 h
Consider the following molecules and their measured TGI readings.

Example molecules with recorded TGI:
Compound Smiles | Test Result
COc1ccc(/C=C\c2cc(OC)c(OC)c(OC)c2)c(NS(=O)(=O)c2ccc(Cl)cc2)c1O | 60.5 µM
O=C(O)CCSC1=NCCN1 | > 100 µM
Nc1ccc2c(c1)NC(=O)[C@@H]1CCCN1C2=O | > 100 µM
O=[N+]([O-])c1ccc2c(c1)n1c(N3CCCC3)[n+]3ccccc3c1c1c3cccc[n+]3c(N3CCCC3)n21 | > 100 µM
Cc1c(C#N)c(=N)oc2ccccc12 | > 100 µM

Turning to the following molecule.
Challenge: Item: `COc1ccc(NC(=O)n2nc(/C=C\c3ccc(O)c(OC)c3)cc2/C=C\c2ccc(O)c(OC)c2)cc1` Test system: UACC-257 melanoma Read-out: TGI Value: ?
Response given: 64.8 µM
